Every entry's value here was drawn from ChEMBL document CHEMBL5344415.

For each record, write down the corresponding MIC50.
system: Mycobacteroides abscessus; assay: Antibacterial activity against Mycobacterium abscessus Bamboo harboring inactive clarithromycin-sensitive erm41 C28 sequevar assessed as bacterial growth inhibition incubated for 3 days in 7H9 medium by optical density based method; assay type: functional; conditions: 72 h, time 3 day
Write the quantity with the unit trailing the number.

Given item O=C(N[C@H](Cc1cccs1)C(=O)Nc1ccccc1N1CC[S+]([O-])CC1)c1cccs1 , the value recorded as its MIC50 is 1.3 µM

// O=C(N[C@H](Cc1ccccc1)C(=O)Nc1ccccc1N1CC[S+]([O-])CC1)c1cccs1 : MIC50 value = 0.33 µM

Query O=C(N[C@H](Cc1ccc(O)cc1)C(=O)Nc1cc(F)ccc1N1CCS(=O)(=O)CC1)c1cccs1 yields MIC50 of 0.4 µM

MIC50 recorded for this molecule, O=C(N[C@H](Cc1ccccc1)C(=O)Nc1ccccc1N1CC[S+]([O-])CC1)c1ccccc1F , is 0.4 µM

// recorded MIC50 for O=C(N[C@H](Cc1ccccc1)C(=O)Nc1cc(F)ccc1N1CCSCC1)c1cccs1 : 1.4 µM

MIC50 measured on O=C(N[C@H](Cc1ccccc1)C(=O)Nc1ccccc1N1CCOCC1)c1cccs1 = 1.7 µM

response.value for O=C(N[C@H](Cc1ccc(O)cc1)C(=O)Nc1cc(F)ccc1N1CCSCC1)c1cccs1 (field: MIC50) = 1.6 µM

MIC50 measured on O=C(N[C@H](Cc1cccs1)C(=O)Nc1ccccc1N1CC[S+]([O-])CC1)c1ccccc1F = 1.8 µM

Data point: O=C(N[C@H](Cc1ccccc1)C(=O)Nc1ccccc1N1CCS(=O)(=O)CC1)c1ccccc1F ; MIC50 = 0.23 µM
